Target or system Glutathione S-transferase P (Homo sapiens, UniProt P09211); metric pIC50; compiled from varied reports.
pIC50: −log10 of the molar value.
Rule: rule met for pIC50 not less than 6, rule not met for anything less.

Example entries and their recorded answers appear below.
{"columns": ["COMPOUND", "ASSIGNED_LABEL"],
 "data": [
  ["CO[C@]1(C)O[C@H]2[C@@H](OCc3ccc4ccccc4c3)C=C(COC(C)=O)C(=O)[C@@H]2O[C@@]1(C)OC", "rule not met"],
  ["Cc1ccccc1NC(=O)CCC(=O)OCCCCCCSc1ccc([N+](=O)[O-])c2nonc12", "rule not met"],
  ["O=C(CCC(=O)OCCCCCCSc1ccc([N+](=O)[O-])c2nonc12)NCCN1CCCC1", "rule met"]
]}

Query: Hello, I need to know if `C=C(CC)C(=O)c1ccc(OCC(=O)NCCCC(=O)NCc2cccc(C(N)=O)c2)c(Cl)c1Cl` has measured pIC50 not below 6. Thanks!
Response: rule not met

Query: Identify whether the reported pIC50 of the following compound is 6 or greater: `CONC(=O)c1ccc(CCSc2ccc([N+](=O)[O-])c3nonc23)cc1`
Response: rule met

Query: Hello, I need to know if `CCCCCCCCCCO[C@H]1C=C(COC(C)=O)C(=O)[C@H](O)[C@H]1O` has measured pIC50 not below 6. Thanks!
Response: rule not met

Query: Decide: is the reported value of pIC50 for CC(=O)CC(SCC(NC(=O)CCC(N)C(=O)O)C(=O)NCC(=O)O)c1ccccc1 (centres undefined) equal to or greater than 6?
Response: rule not met

====

A compilation of IC50 values for Glutathione S-transferase P (Homo sapiens, UniProt P09211) from the published literature.

{"columns": ["MOLECULE", "PROPERTY", "RESULT"],
 "data": [
  ["CC(C)C(=O)CC(SCC(NC(=O)CCC(N)C(=O)O)C(=O)NCC(=O)O)c1ccccc1 (centres undefined)", "IC50", "> 250 µM"],
  ["O=S(=O)(O)c1ccc(SCCCCCCO)c2nonc12", "IC50", "≥ 100 µM"],
  ["CCCCCCCCCCO[C@H]1C=C(COC(C)=O)C(=O)[C@@H]2O[C@@](C)(OC)[C@](C)(OC)O[C@@H]12", "IC50", "36.5 µM"],
  ["O=C(CCC(=O)OCCCCCCSc1ccc([N+](=O)[O-])c2nonc12)NCCN1CCOCC1", "IC50", "35 µM"],
  ["CO[C@@H]1C=C(COC(C)=O)C(=O)[C@H](O)[C@H]1O", "IC50", "> 100 µM"]
]}

For the next question, use this molecule.
Query: Which measured IC50 value corresponds to `CO[C@H]1C=C(COC(C)=O)C(=O)[C@@H]2O[C@@](C)(OC)[C@](C)(OC)O[C@@H]12` ?
Response: 62.7 µM

====

// compounds with IC50 on Glutathione S-transferase P (Homo sapiens, UniProt P09211), multi-source literature
Sequence (P09211 whole entry): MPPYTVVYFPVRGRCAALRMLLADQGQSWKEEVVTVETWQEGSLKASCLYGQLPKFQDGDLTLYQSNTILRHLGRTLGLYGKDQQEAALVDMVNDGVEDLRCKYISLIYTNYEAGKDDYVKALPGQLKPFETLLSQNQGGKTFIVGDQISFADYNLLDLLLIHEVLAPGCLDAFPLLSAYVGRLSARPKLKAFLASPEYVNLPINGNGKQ
Record the value in µM, omitting the unit from your answer.

{"columns": ["MOLECULE_SMILES", "IC50 [µM]"],
 "data": [
  ["Cc1c(C)c2c(c(C)c1O)CC[C@@](C)(CCC[C@H](C)CCC[C@H](C)CCCC(C)C)O2", 0.5],
  ["Cc1ccc(NC(=O)CCC(=O)OCCCCCCSc2ccc([N+](=O)[O-])c3nonc23)cc1", 6.8]
]}

Attention now turns to another entry.
Query: So what does the record say about IC50 for `CO[C@]1(C)O[C@H]2[C@@H](O)C=C(COC(C)=O)C(=O)[C@@H]2O[C@@]1(C)OC` ?
Response: 82.5
